MEASUREMENT TYPE: melting point

Consider the reported melting point for these compounds:
CC(=O)Nc1ccc(Cl)cc1[N+](=O)[O-]; 98 °C
Ic1cccc(CN2CCOCC2)c1; 32 to 34 °C

Prompt: Consider the compound shown here: "NNC(=O)C1CCCCC1" What is its recorded melting point?
Completion: 153 to 155 °C

Prompt: Consider the compound shown here: "COc1ccc(OC)c(S(N)(=O)=O)c1" What is its recorded melting point?
Completion: 150 to 152 °C

Prompt: Consider the compound shown here: "O=C(O)c1ccccc1CCc1ccccc1" What is its recorded melting point?
Completion: 127 to 132 °C

----------
MEASUREMENT TYPE: melting point

CCCCCCCCNC(=S)NN; 47 to 49 °C
OCc1cc(Cl)cc(Cl)c1O; 82 to 83 °C
FC(F)(F)c1cccc(-c2noc(-c3cc(-c4ccccc4)c(C(F)(F)F)s3)n2)c1; 95 to 96 °C
COc1ccc(C=C(CC(=O)O)C(=O)O)cc1; 186 to 188 °C

Okay, now this molecule:
Prompt: Consider the molecule shown here: CC12CCC(=O)CC1CCC1C2CCC2(C)C1CCC21OCCO1 (stereo not given) What is its recorded melting point?
Completion: 192 to 196 °C

----------
MEASUREMENT TYPE: melting point (°C)

COC(=O)C1(S(=O)(=O)c2ccc([N+](=O)[O-])cc2)CC1; 127
C1=C\c2ccc(cc2)-c2ccccc2-c2ccc/1cc2; 230
N#C/C(=N/Nc1ccc(Cl)cc1)c1nc(-c2ccc(Cl)cc2)cs1; 240
C[Si](C)(C)O[Si](C)(C)O[Si](C)(C)O[Si](C)(C)C; -68
CC(O)CCc1ccc2c(c1)N(C(=O)c1ccccc1)C(C)CC2 (stereo unspecified); 77
CCCCCCCCCCCCN; 28.3

[1] Cc1c(C)c2c(c(C)c1O)CCC(C)(COc1ccc(CC3SC(=O)NC3=O)cc1)O2 (stereo unspecified)
[2] FC(F)(F)c1nn(CN2CCN(Cn3nc(C(F)(F)F)n(N=Cc4ccccc4)c3=S)CC2)c(=S)n1N=Cc1ccccc1
[3] COCCCNc1nc(NCCCOC)nc(SC)n1
[4] Brc1cccc(Br)n1
[5] C=CC(=O)OCC(CC)CC
Prompt: Put the items in order so that reported melting point rises from first to last. Answer format: the labels, in the requested order.
Completion: 5, 3, 4, 1, 2
(5: -70 °C, 3: 55 °C, 4: 119 °C, 1: 185 °C, 2: 333 °C)

[I] O=c1[nH]n(C2C=CC3C4C=CC(C4)C32)c(=O)n1-c1ccccc1 (stereo unspecified)
[II] O=c1[nH]nc(-c2ccccc2)c2ccccc12
Prompt: Would you let me know which has the greater melting point value, I or II ? State your choice using its label.
Completion: II

[a] Cc1cc(C)c(C[S+]([O-])Cc2c(C)cc(C)cc2C)c(C)c1
[b] C=C(C)CNc1ccc(C(C)C(=O)O)cc1 (stereo unspecified)
[c] CCO[Si](CCCNC(=O)c1ccc([N+](=O)[O-])cc1)(OCC)OCC
[d] O=C1c2ccccc2C(=O)c2c1cc(O)c(O)c2O
[e] CCCCCCC(=O)OC(=O)CCCCCC
Prompt: Rank the 5 compounds: largest melting point first, smallest last. Answer format: the labels, in the requested order.
Completion: d, a, b, c, e

[P] Cn1c(=O)c(C2=NNC(=O)C2=CNc2cccc3ccccc23)c(O)c2ccccc21
[Q] CSc1ccc(O)cc1C
[R] O=C(Nc1nc2ccccc2s1)C(C(F)(F)F)C(F)(F)F
[S] COC(=O)CC(C)=O
Prompt: Rank the 4 compounds: largest melting point first, smallest last. Answer format: the labels, in the requested order.
Completion: P, R, Q, S
(P: 292 °C, R: 174 °C, Q: 56 °C, S: 27.5 °C)
